Quick reference: CC50 at 120 h of the listed items.
- Experiment description: Cytotoxicity against human MT4 cells after 5 days by MTT assay
- Format: cell-based
Readout type: CC50 at 120 h (µM)

1) CCCn1cc(C(=O)O)c(=O)c2cc(Cc3cccc(Cl)c3Cl)ccc21
15.6
2) O=C(O)c1cn([C@H](CO)c2ccccc2)c2ccc(Cc3cccc(Cl)c3F)cc2c1=O
8.7
3) NC(=O)Cn1cc(C(=O)O)c(=O)c2cc(Cc3cccc(Cl)c3Cl)ccc21
22.6
4) CCCCn1cc(C(=O)O)c(=O)c2cc(Cc3cccc(Cl)c3Cl)ccc21
15
5) Cc1ccccc1Cc1ccc2[nH]cc(C(=O)O)c(=O)c2c1
18.5
6) O=C(O)c1c[nH]c2ccc(Cc3cccc(Cl)c3Cl)cc2c1=O
12.6
7) CC(C)(C)[C@@H](CO)n1cc(C(=O)O)c(=O)c2cc(Cc3cccc(Cl)c3F)ccc21
14.4
8) O=C(O)c1c[nH]c2ccc(Cc3cc(Cl)ccc3Cl)cc2c1=O
13.2
9) CCC[C@@H](CO)n1cc(C(=O)O)c(=O)c2cc(Cc3cccc(Cl)c3F)c(OC)cc21
3.1
10) O=C(O)c1cn(CCCO)c2ccc(Cc3cccc(Cl)c3Cl)cc2c1=O
15.1
11) CCn1cc(C(=O)O)c(=O)c2cc(Cc3cccc(Cl)c3Cl)ccc21
16.2

----------
- Experiment description: Cytotoxicity against human MT4 cells after 5 days by MTT assay
- Format: cell-based
Quick reference: CC50 at 120 h of the listed items.
Readout type: CC50 at 120 h

1. O=C(O)/C(O)=C/C(=O)c1cccc(Cc2ccccc2)c1
> 30 µM
2. Cn1cc(C(=O)C(=O)O)c(=O)c2cc(Cc3ccccc3)ccc21
> 30 µM
3. O=C(O)c1cn(CCO)c2ccc(Cc3cccc(Cl)c3F)cc2c1=O
> 6 µM
4. CC(C)n1cc(C(=O)O)c(=O)c2cc(Cc3cccc(Cl)c3Cl)ccc21
> 6 µM
5. CCOC(=O)c1cnc2ccc(Cc3ccccc3)cc2c1O
> 30 µM
6. O=C(O)c1c[nH]c2ccc(Cc3cccc(Cl)c3)cc2c1=O
> 6 µM

----------
- Assayed target: Human immunodeficiency virus type 1 integrase (Human immunodeficiency virus 1)
- Sequence (Q7ZJM1 whole entry): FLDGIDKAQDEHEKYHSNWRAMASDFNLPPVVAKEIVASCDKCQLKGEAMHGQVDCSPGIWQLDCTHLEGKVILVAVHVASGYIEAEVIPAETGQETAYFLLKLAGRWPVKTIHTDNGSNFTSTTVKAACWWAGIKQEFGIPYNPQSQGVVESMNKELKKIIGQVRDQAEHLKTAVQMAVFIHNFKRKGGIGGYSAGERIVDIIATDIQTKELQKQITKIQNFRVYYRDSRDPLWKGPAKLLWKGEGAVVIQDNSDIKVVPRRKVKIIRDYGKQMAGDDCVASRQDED
// returns class 0 unless IC50 is strictly below 80 nM, in which case class 1

1. O=C(O)c1c[nH]c2ccc(Cc3ccc(Cl)cc3)cc2c1=O
class 0
2. Cn1cc(C(=O)O)c(=O)c2cc(Cc3cccc(Cl)c3Cl)ccc21
class 0
3. Cc1cc2c(cc1Cc1cccc(Cl)c1Cl)c(=O)c(C(=O)O)cn2CCO
class 1
4. Cn1cc(C(=O)O)c(=O)c2cc(Cc3ccccc3)ccc21
class 0
5. CC(C)(C)[C@@H](CO)n1cc(C(=O)O)c(=O)c2cc(Cc3cccc(Cl)c3F)ccc21
class 1
6. CC[C@@H](CO)n1cc(C(=O)O)c(=O)c2cc(Cc3cccc(Cl)c3F)ccc21
class 1
7. NC(=O)Cn1cc(C(=O)O)c(=O)c2cc(Cc3cccc(Cl)c3Cl)ccc21
class 1
8. CCOC(=O)c1cnc2ccc(Cc3ccccc3)cc2c1O
class 0
9. O=C(O)c1cn(CCCO)c2ccc(Cc3cccc(Cl)c3Cl)cc2c1=O
class 1
10. CCC[C@@H](CO)n1cc(C(=O)O)c(=O)c2cc(Cc3cccc(Cl)c3F)c(OC)cc21
class 1
11. COc1ccccc1Cc1ccc2[nH]cc(C(=O)O)c(=O)c2c1
class 0
